biological target: Tryptase beta-2 (Homo sapiens)
Sequence (P20231 as listed by the source): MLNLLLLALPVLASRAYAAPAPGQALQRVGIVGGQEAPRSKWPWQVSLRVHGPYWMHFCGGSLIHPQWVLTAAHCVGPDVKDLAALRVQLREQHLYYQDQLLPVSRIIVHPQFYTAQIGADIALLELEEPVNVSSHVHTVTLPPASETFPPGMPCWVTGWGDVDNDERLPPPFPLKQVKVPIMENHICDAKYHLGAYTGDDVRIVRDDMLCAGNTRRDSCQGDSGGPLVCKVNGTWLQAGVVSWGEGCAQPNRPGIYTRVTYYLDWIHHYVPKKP
ASSAY METRIC: Ki (µM)
Please give a number only; it is taken to be in µM.

## Task I have this compound here, N=C(N)c1cc2cccnc2s1 , and I need its recorded Ki.
## Result 34

Where these numbers come from: BindingDB's records for doi:10.1016/S1074-5521(00)00104-6
